Answer each item with its documented MFI.
# SUBJECT_OF_TEST: CTLA-4 (Homo sapiens (Human)) (UniProt P16410)
# Sequence (P16410 36-223): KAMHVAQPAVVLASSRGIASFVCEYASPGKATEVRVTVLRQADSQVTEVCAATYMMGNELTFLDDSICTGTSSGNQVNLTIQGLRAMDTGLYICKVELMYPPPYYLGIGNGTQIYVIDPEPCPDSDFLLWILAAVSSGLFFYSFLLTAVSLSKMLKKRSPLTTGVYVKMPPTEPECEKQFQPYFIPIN
# ASSAY_REMARKS: flow cytometry, transfected cells
Give bare numbers, in MFI.

Example results:
{"columns": ["BINDER", "SCALE_UNIT", "MEASURED"],
 "data": [
  ["ICOSL-Fc N52A/N57Y/Q100A (Fc fusion) DTQEKEVRAMVGSDVELSCACPEGSRFDLNDVYVYWQTSESKTVVTYHIPQASSLEYVDSRYRNRALMSPAGMLRGDFSLRLFNVTPQDEQKFHCLVLSASLGFQEVLSVEVTLHVAANFSVPVVSAPHSPSQDELTFTCTSINGYPRPNVYWINKTDNSLLDQALQNDTVFLNMRGLYDVVSVLRIARTPSVNIGCCIENVLLQQNLTVGSQTGNDIGERDKITENPVSTGEKNAAT", "MFI", 320000],
  ["ICOSL ECD-Fc N84Q/N119Q/N207Q (Fc fusion) DTQEKEVRAMVGSDVELSCACPEGSRFDLNDVYVYWQTSESKTVVTYHIPQNSSLENVDSRYRNRALMSPAGMLRGDFSLRLFQVTPQDEQKFHCLVLSQSLGFQEVLSVEVTLHVAAQFSVPVVSAPHSPSQDELTFTCTSINGYPRPNVYWINKTDNSLLDQALQNDTVFLNMRGLYDVVSVLRIARTPSVNIGCCIENVLLQQQLTVGSQTGNDIGERDKITENPVSTGEKNAAT", "MFI", 640],
  ["ICOSL-Fc N52Q/N57S/Q100A (Fc fusion) DTQEKEVRAMVGSDVELSCACPEGSRFDLNDVYVYWQTSESKTVVTYHIPQQSSLESVDSRYRNRALMSPAGMLRGDFSLRLFNVTPQDEQKFHCLVLSASLGFQEVLSVEVTLHVAANFSVPVVSAPHSPSQDELTFTCTSINGYPRPNVYWINKTDNSLLDQALQNDTVFLNMRGLYDVVSVLRIARTPSVNIGCCIENVLLQQNLTVGSQTGNDIGERDKITENPVSTGEKNAAT", "MFI", 315000]
]}

Your task in this section: give MFI for each listed record.
1. ICOSL-Fc N52R/N57W/Q100K (Fc fusion) DTQEKEVRAMVGSDVELSCACPEGSRFDLNDVYVYWQTSESKTVVTYHIPQRSSLEWVDSRYRNRALMSPAGMLRGDFSLRLFNVTPQDEQKFHCLVLSKSLGFQEVLSVEVTLHVAANFSVPVVSAPHSPSQDELTFTCTSINGYPRPNVYWINKTDNSLLDQALQNDTVFLNMRGLYDVVSVLRIARTPSVNIGCCIENVLLQQNLTVGSQTGNDIGERDKITENPVSTGEKNAAT
2. ICOSL-Fc N52T/N57H/Q100S (Fc fusion) DTQEKEVRAMVGSDVELSCACPEGSRFDLNDVYVYWQTSESKTVVTYHIPQTSSLEHVDSRYRNRALMSPAGMLRGDFSLRLFNVTPQDEQKFHCLVLSSSLGFQEVLSVEVTLHVAANFSVPVVSAPHSPSQDELTFTCTSINGYPRPNVYWINKTDNSLLDQALQNDTVFLNMRGLYDVVSVLRIARTPSVNIGCCIENVLLQQNLTVGSQTGNDIGERDKITENPVSTGEKNAAT
3. ICOSL-Fc N52R/N57F/Q100T (Fc fusion) DTQEKEVRAMVGSDVELSCACPEGSRFDLNDVYVYWQTSESKTVVTYHIPQRSSLEFVDSRYRNRALMSPAGMLRGDFSLRLFNVTPQDEQKFHCLVLSTSLGFQEVLSVEVTLHVAANFSVPVVSAPHSPSQDELTFTCTSINGYPRPNVYWINKTDNSLLDQALQNDTVFLNMRGLYDVVSVLRIARTPSVNIGCCIENVLLQQNLTVGSQTGNDIGERDKITENPVSTGEKNAAT

-- reply
1. 477000
2. 378000
3. 358000

Your task in this section: give MFI for each listed record.
1. ICOSL-Fc N52R/N57L/Q100A (Fc fusion) DTQEKEVRAMVGSDVELSCACPEGSRFDLNDVYVYWQTSESKTVVTYHIPQRSSLELVDSRYRNRALMSPAGMLRGDFSLRLFNVTPQDEQKFHCLVLSASLGFQEVLSVEVTLHVAANFSVPVVSAPHSPSQDELTFTCTSINGYPRPNVYWINKTDNSLLDQALQNDTVFLNMRGLYDVVSVLRIARTPSVNIGCCIENVLLQQNLTVGSQTGNDIGERDKITENPVSTGEKNAAT
2. ICOSL-Fc N52V/N57T/Q100L (Fc fusion) DTQEKEVRAMVGSDVELSCACPEGSRFDLNDVYVYWQTSESKTVVTYHIPQVSSLETVDSRYRNRALMSPAGMLRGDFSLRLFNVTPQDEQKFHCLVLSLSLGFQEVLSVEVTLHVAANFSVPVVSAPHSPSQDELTFTCTSINGYPRPNVYWINKTDNSLLDQALQNDTVFLNMRGLYDVVSVLRIARTPSVNIGCCIENVLLQQNLTVGSQTGNDIGERDKITENPVSTGEKNAAT
3. ICOSL-Fc N52K/N57Y/Q100R (Fc fusion) DTQEKEVRAMVGSDVELSCACPEGSRFDLNDVYVYWQTSESKTVVTYHIPQKSSLEYVDSRYRNRALMSPAGMLRGDFSLRLFNVTPQDEQKFHCLVLSRSLGFQEVLSVEVTLHVAANFSVPVVSAPHSPSQDELTFTCTSINGYPRPNVYWINKTDNSLLDQALQNDTVFLNMRGLYDVVSVLRIARTPSVNIGCCIENVLLQQNLTVGSQTGNDIGERDKITENPVSTGEKNAAT
4. ICOSL-Fc N57Q/Q100P (Fc fusion) DTQEKEVRAMVGSDVELSCACPEGSRFDLNDVYVYWQTSESKTVVTYHIPQNSSLEQVDSRYRNRALMSPAGMLRGDFSLRLFNVTPQDEQKFHCLVLSPSLGFQEVLSVEVTLHVAANFSVPVVSAPHSPSQDELTFTCTSINGYPRPNVYWINKTDNSLLDQALQNDTVFLNMRGLYDVVSVLRIARTPSVNIGCCIENVLLQQNLTVGSQTGNDIGERDKITENPVSTGEKNAAT

-- reply
[403000, 11500, 233000, 69100]
